Tested on: UACC-257
Test: NCI tumour cell line growth inhibition, 48 h
The source made the active and inactive calls. Cut-off read from the data, not from the text of the source: active = GI50 up to about 1.1 µM and inactive = higher.
Hi! Could you answer with just one of these? label 1 (active), label 0 (inactive)

{"columns": ["compound", "category-label"],
 "data": [
  ["Nc1cc2nc(O)c(O)nc2cc1N", "label 0"],
  ["Cc1ccc(NC(=S)NNC(=O)c2cc(-c3ccccc3)nc3ccccc23)cc1", "label 0"],
  ["CCN(CC)CCN(C(=O)C(C)(C)C)c1ccccc1N", "label 0"],
  ["CC1(C)OC2C(CCP(=O)(O)O)OC(c3nc(C(N)=O)cs3)C2O1 (stereo unspecified)", "label 0"],
  ["CCCCCN(CCCCC)C(=O)[C@H](CCC(=O)O)NC(=O)c1cc2ccccc2[nH]1", "label 0"],
  ["OCCCN=C1CCCCC1", "label 0"],
  ["C=CCNC1=C2C[C@@H](C)C[C@H](OC)[C@H](O)[C@@H](C)/C=C(\\C)[C@H](OC(N)=O)[C@@H](OC)/C=C\\C=C(/C)C(=O)NC(=CC1=O)C2=O", "label 1"],
  ["Cc1nc(C)c(C(=O)Nc2cccc3c2C(=O)NC3=O)cc1C(=O)Nc1cccc2c1C(=O)NC2=O", "label 0"]
]}

Query: Record lookup: outcome of this test for CCCCOC(=O)NC(Nc1cccc(C(F)(F)F)c1)(C(F)(F)F)C(F)(F)F ?
Reply: label 0

Query: Same lookup for CCOc1ccc(NC(=O)CCc2nnc(SC)o2)cc1 , please.
Reply: label 0

Query: Please give the result for COc1ccc2c(c1)N(C(C)=O)CN1C(=O)CCC21 (stereo unspecified) too.
Reply: label 0

* * *

# Lookup of reported GI50 keyed by entry
System: SK-MEL-5
Assay: NCI tumour cell line growth inhibition, 48 h
Active and inactive are the calls of the source. Rule as the data show it: active = GI50 up to about 1.1 µM and inactive = higher.

{"columns": ["molecule", "tested-target", "GI50"],
 "data": [
  ["Nc1cc2c3c(c1)Oc1cc(N)cc4c1C3c1c(cc(N)cc1O4)O2", "SK-MEL-5", "11.9 µM (inactive)"],
  ["CSC1NC(c2ccccc2)=C(C#N)C(=O)N1C1OCC(OC(C)=O)C(OC(C)=O)C1OC(C)=O (stereo not given)", "SK-MEL-5", "> 100 µM (inactive)"],
  ["CN(COC(=O)c1ccccc1)c1nc(N(C)COC(=O)c2ccccc2)nc(N(C)COC(=O)c2ccccc2)n1", "SK-MEL-5", "> 100 µM (inactive)"]
]}

Query: Data request, read-out GI50, for COc1cc2c(cc1OC)C(OC)N(C)c1c-2ccc2cc3c(cc12)OCO3 (stereo not given)
Reply: 1.8 µM (inactive)

Query: Continue with N=C(N)N/N=C/c1c(-c2ccc(Cl)c(Cl)c2Cl)nc2sccn12
Reply: 1.74 µM (inactive)

Query: Next entry: Cc1ccc(S(=O)(=O)N/N=C2\CC3C4C=CC3C2C4)cc1 (stereo not given)
Reply: > 100 µM (inactive)

Query: Entry N#Cc1sc2c(c1OC(=O)c1ccc(Cl)cc1Cl)c(=O)n(-c1ccccc1)c(=S)n2-c1ccccc1 please
Reply: 16.6 µM (inactive)

Query: Also, COc1ccccc1NC(=O)C1=C(C)NC(C)=C(C(=O)Nc2ccccc2OC)C1c1ccco1 please.
Reply: 3.02 µM (inactive)

Query: Another molecule: CC(=O)Nc1ccc(-c2nc3ccccc3s2)cc1Cl
Reply: > 100 µM (inactive)

Query: // query: COc1ccc(-n2c(C)nc3ccc(NC4OC(CO)C(O)C(O)C4O)cc3c2=O)cc1 (stereo not given)
Reply: > 100 µM (inactive)
